- tgt: Acetylcholinesterase (Electrophorus electricus)
- Sequence (O42275 whole entry): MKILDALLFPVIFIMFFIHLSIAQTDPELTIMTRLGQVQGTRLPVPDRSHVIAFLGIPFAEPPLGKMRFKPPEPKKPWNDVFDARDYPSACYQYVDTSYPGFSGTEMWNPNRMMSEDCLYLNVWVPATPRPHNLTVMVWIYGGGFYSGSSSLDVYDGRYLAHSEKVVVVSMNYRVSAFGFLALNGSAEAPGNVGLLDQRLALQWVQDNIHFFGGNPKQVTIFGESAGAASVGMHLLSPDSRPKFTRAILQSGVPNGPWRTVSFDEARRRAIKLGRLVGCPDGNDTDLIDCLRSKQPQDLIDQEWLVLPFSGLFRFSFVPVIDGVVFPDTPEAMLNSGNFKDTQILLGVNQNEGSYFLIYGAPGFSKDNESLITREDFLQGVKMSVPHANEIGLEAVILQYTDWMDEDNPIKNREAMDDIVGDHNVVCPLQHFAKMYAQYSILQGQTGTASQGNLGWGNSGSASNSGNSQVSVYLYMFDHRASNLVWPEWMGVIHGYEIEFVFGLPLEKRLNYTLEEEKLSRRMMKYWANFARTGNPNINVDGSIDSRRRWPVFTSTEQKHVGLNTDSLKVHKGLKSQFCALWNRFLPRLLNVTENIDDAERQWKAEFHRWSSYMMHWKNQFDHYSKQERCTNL
IC50 values, listed per item
# unit: µM | format: bare number

C=CCn1nnc2ccc3sccc3c21 = 56.2

Please find the next molecule below.
Please fill in: IC50 reported for `C(=C/c1cccs1)/c1cn(CCc2cc3ccccc3[nH]2)nn1` = 596

----------
- tgt: Cholinesterase (Equus caballus)
- Sequence (P81908 whole entry): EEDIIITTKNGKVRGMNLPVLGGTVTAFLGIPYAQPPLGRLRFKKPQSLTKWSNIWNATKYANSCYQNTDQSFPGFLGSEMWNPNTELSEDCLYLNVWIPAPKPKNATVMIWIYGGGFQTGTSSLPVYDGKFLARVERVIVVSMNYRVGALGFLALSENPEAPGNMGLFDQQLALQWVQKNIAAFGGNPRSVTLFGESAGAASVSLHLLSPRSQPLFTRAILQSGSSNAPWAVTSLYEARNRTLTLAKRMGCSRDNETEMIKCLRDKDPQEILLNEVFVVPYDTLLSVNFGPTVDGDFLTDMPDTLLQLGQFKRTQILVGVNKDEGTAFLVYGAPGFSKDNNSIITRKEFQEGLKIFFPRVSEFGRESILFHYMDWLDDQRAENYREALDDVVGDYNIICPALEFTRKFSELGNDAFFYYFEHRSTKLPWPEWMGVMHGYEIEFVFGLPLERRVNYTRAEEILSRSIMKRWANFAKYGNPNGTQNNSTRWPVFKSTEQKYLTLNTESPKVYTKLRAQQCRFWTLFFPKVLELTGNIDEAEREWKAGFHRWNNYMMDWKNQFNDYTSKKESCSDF
- assayProtocol: Inhibition of equine serum BuChE using S-butyrylthiocholine iodide as substrate pre-incubated for 5 mins followed by substrate addition and measured after 6 mins by Ellman's method
reportedEndpoint: pIC50
pIC50 field: float, defined as -log10 of concentration (mol/L).

CCCn1cc(/C=C\c2cccs2)nn1 = 4.02
C(=C/c1cccs1)/c1cn(CCc2cc3ccccc3[nH]2)nn1 = 3.63
O=[N+]([O-])c1ccc(-n2nnc3ccc4sccc4c32)cc1 = 3.35

Please find the next molecule below.
Please fill in: pIC50 reported for `C=CCn1nnc2ccc3sccc3c21` = 5.42

----------
- tgt: Acetylcholinesterase (Electrophorus electricus)
- assayProtocol: Inhibition of electric eel AChE using acetylthiocholine iodide as substrate pre-incubated for 5 mins followed by substrate addition at 500 uM and measured after 6 mins by Ellman's method relative to control
reportedEndpoint: inhibition (%)
# unit: % | format: bare number

Worked examples, 3 compounds total:
CCCn1cc(/C=C/c2cccs2)nn1 = 36.9
C=CCn1nnc2ccc3sccc3c21 = 76.9
O=[N+]([O-])c1ccc(-n2nnc3ccc4sccc4c32)cc1 = 43.3

Please find the next compound below.
Please fill in: inhibition reported for `C(=C/c1cccs1)/c1cn(CCc2cc3ccccc3[nH]2)nn1` = 67.4
